Hey, just so you know, these numbers are from ChEMBL document CHEMBL1134129.

biological target: Acetylcholinesterase (Bos taurus)
Sequence (P23795 whole entry): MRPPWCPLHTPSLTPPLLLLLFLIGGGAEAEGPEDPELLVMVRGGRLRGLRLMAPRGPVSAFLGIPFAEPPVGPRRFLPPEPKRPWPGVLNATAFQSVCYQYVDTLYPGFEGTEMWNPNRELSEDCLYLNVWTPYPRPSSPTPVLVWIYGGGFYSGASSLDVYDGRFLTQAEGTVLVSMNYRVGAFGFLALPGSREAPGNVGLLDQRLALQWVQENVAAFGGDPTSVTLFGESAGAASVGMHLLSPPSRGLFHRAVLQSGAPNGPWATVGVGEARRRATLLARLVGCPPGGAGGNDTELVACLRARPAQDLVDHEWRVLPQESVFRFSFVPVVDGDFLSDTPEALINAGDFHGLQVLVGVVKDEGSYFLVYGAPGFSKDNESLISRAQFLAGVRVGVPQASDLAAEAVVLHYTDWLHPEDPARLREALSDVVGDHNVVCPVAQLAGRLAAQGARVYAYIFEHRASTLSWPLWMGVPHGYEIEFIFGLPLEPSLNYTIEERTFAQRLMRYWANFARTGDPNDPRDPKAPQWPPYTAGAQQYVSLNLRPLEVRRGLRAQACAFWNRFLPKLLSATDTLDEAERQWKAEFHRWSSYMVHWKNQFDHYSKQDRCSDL
Rule: measured Ki below 300 nM gets Fulfilled; anything equal to or greater than 300 nM gets Not fulfilled.

Use these answered entries as a reference point.
chemicalSmiles	assignedLabel
Clc1cc(Cl)c2nc3c(c(SCCCCCCCNc4c5c(nc6ccccc46)CCCC5)c2c1)CCCC3	Fulfilled
c1ccc2c(NCCCCSc3c4c(nc5ccccc35)CCCC4)c3c(nc2c1)CCCC3	Not fulfilled
c1ccc2c(NCCCCCCCSc3c4c(nc5ccccc35)CCCC4)c3c(nc2c1)CCCC3	Not fulfilled
Clc1cc(Cl)c2c(SCCCCCCNc3c4c(nc5ccccc35)CCCC4)c3c(nc2c1)CCCC3	Fulfilled

Incoming: API: query returns whether the compound falls strictly under 300 nM in Ki. Query: `c1ccc2c(SCCCCCCCSc3c4c(nc5ccccc35)CCCC4)c3c(nc2c1)CCCC3`
Outgoing: Not fulfilled

Incoming: API: query returns whether the compound falls strictly under 300 nM in Ki. Query: `Nc1c2c(nc3cc(Cl)cc(Cl)c13)CCCC2`
Outgoing: Fulfilled
